From: ChEMBL document CHEMBL1145010

system: MCF7; test: In Vitro cytotoxicity against human cancer cell line, MCF-7; assay type: functional
recorded.endpoint: Cytotoxicity (µM)
Lab book: enter the figure in µM, no units written.

Exercise: What is its Cytotoxicity for MCF7? Entry: CC(=O)OC1C(=O)N(c2cc3ccccc3c3ccccc23)[C@H]1c1ccccc1 (stereo not given in full)
Key: 10.09

Exercise: I'm curious: which Cytotoxicity was measured for CC(=O)OC1C(=O)N(c2cc3c4ccccc4ccc3c3ccccc23)[C@H]1c1ccccc1 (stereo not given in full) tested on MCF7?
Key: 9.81

====

tested on: HT-29; assay: In Vitro cytotoxicity against human cancer cell line, HT-29; assay type: functional
Answer each item with its documented Cytotoxicity.

Exercise: // query Cytotoxicity value for entry CC(=O)OC1C(=O)N(c2ccc3ccc4cccc5ccc2c3c45)[C@H]1c1ccccc1 (some centres not stated)
Key: >20 µM

Exercise: Recorded Cytotoxicity for CC(=O)OC1C(=O)N(c2cccc3cc4ccccc4cc23)[C@@H]1c1ccccc1 (some centres not stated) , please?
Key: >20 µM

Exercise: Endpoint output: Cytotoxicity of CC(=O)OC1C(=O)N(c2cc3c4ccccc4ccc3c3ccccc23)[C@H]1c1ccccc1 (some centres not stated) . Value?
Key: 5.66 µM

Exercise: What does the data say about its Cytotoxicity? Entry: CC(=O)OC1C(=O)N(c2cccc3ccccc23)[C@@H]1c1ccccc1 (some centres not stated)
Key: >20 µM

Exercise: Recorded Cytotoxicity of `CN1CCN(C(=O)CCC(=O)Nc2cc3c4ccccc4ccc3c3ccccc23)CC1` , please.
Key: 16.7 µM

Exercise: Can you share its Cytotoxicity? I mean this compound: CC(=O)OC1C(=O)N(c2cc3c4ccccc4ccc3c3ccccc23)[C@H]1c1ccccn1 (some centres not stated)
Key: 15.9 µM

Exercise: Quick check: Cytotoxicity of CC(=O)OC1C(=O)N(c2cc3ccccc3c3ccccc23)[C@H]1c1ccccc1 (some centres not stated) ?
Key: 10.49 µM

Exercise: Return reported Cytotoxicity; argument: O=C1C(Oc2ccccc2)[C@H](c2ccccc2)N1c1cc2c3ccccc3ccc2c2ccccc12 (some centres not stated)
Key: >20 µM

Exercise: Dear colleague, I am looking for the recorded Cytotoxicity of the following compound: O=C1c2ccccc2C(=O)N1C1C(=O)N(c2cc3c4ccccc4ccc3c3ccccc23)[C@H]1c1ccccc1 (some centres not stated)
Key: >20 µM

Exercise: Given the entry CC(=O)OC1C(=O)N(c2ccccc2)C1c1cc2c3ccccc3ccc2c2ccccc12 (configuration not stated) , report its measured Cytotoxicity.
Key: >20 µM

Exercise: Entry under review: CC(=O)OC1C(=O)N(c2cccc3cc4c(cc23)Cc2cc3ccccc3cc2-4)[C@H]1c1ccccc1 (some centres not stated) . Reported Cytotoxicity?
Key: >20 µM

Exercise: Cytotoxicity for O=C1C(Oc2ccccc2)[C@H](c2ccccc2)N1c1cc2ccccc2c2ccccc12 (some centres not stated) ?
Key: >20 µM

====

test system: OVCAR; experiment: In Vitro cytotoxicity against human cancer cell line, OVCAR; type: functional
recorded.endpoint: Cytotoxicity

Exercise: What Cytotoxicity value was documented for this compound, O=C1C(Oc2ccccc2)[C@H](c2ccccc2)N1c1cc2ccccc2c2ccccc12 (stereo partly specified) ?
Key: >20 µM

Exercise: Consider the compound shown here: CC(=O)OC1C(=O)N(c2cccc3cc4c(cc23)Cc2cc3ccccc3cc2-4)[C@H]1c1ccccc1 (stereo partly specified) What is its recorded Cytotoxicity?
Key: >20 µM

Exercise: Can you share its Cytotoxicity? I mean this compound: CC(=O)OC1C(=O)N(c2ccc3ccc4cccc5ccc2c3c45)[C@H]1c1ccccc1 (stereo partly specified)
Key: >20 µM

Exercise: For the compound shown here, CC(=O)OC1C(=O)N(c2cc3c4ccccc4ccc3c3ccccc23)[C@H]1c1ccccc1 (stereo partly specified) , give the reported Cytotoxicity.
Key: 4.17 µM

Exercise: // Cytotoxicity lookup, key: CC(=O)OC1C(=O)N(c2ccccc2)C1c1cc2c3ccccc3ccc2c2ccccc12 (stereo unspecified)
Key: >20 µM

Exercise: Please look up its Cytotoxicity: CC(=O)OC1C(=O)N(c2cc3ccccc3c3ccccc23)[C@H]1c1ccccc1 (stereo partly specified)
Key: 18 µM

Exercise: May I ask what Cytotoxicity has been recorded for O=C1C(Oc2ccccc2)[C@H](c2ccccc2)N1c1cc2c3ccccc3ccc2c2ccccc12 (stereo partly specified) ?
Key: >20 µM

Exercise: Reported Cytotoxicity for `CN1CCN(C(=O)CCC(=O)Nc2cc3c4ccccc4ccc3c3ccccc23)CC1` : what is it?
Key: 18.11 µM

Exercise: Suppose we examine the compound CC(=O)OC1C(=O)N(c2cccc3ccccc23)[C@@H]1c1ccccc1 (stereo partly specified) ; what Cytotoxicity value has been reported?
Key: >20 µM

Exercise: Query (compound): O=C1c2ccccc2C(=O)N1C1C(=O)N(c2cc3c4ccccc4ccc3c3ccccc23)[C@H]1c1ccccc1 (stereo partly specified) ; field requested: Cytotoxicity
Key: >20 µM

Exercise: // returns reported Cytotoxicity for input CC(=O)OC1C(=O)N(c2cccc3cc4ccccc4cc23)[C@@H]1c1ccccc1 (stereo partly specified)
Key: >20 µM
